Item-by-item account of IC50
Target: PI5P4Kγ+ (Homo sapiens, UniProt Q8TBX8, D138G/D197E/E133P/E135D/E153T/E196G/G139A/N195G/S132L/S134N)
Sequence (Q8TBX8 with tags, fused parts or gaps with the stated changes): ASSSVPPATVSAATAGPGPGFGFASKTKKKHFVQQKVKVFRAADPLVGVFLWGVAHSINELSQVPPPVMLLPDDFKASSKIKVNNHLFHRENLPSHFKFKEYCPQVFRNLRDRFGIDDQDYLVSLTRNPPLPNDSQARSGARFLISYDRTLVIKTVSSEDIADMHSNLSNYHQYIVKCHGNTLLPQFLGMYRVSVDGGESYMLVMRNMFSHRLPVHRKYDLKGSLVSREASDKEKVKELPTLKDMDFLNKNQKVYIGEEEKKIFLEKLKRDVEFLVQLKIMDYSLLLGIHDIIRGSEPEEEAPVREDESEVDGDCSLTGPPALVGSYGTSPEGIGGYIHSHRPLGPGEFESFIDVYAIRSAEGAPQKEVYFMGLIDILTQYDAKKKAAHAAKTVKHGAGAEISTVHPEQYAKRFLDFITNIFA
Assay: biochemical
Conditions: ADP-Glo pIC50 PI5P4Kγ+, Table S1, two decimals; asterisk not explained
measured-metric: IC50

# molecule, result
measured = [
    ("Cc1ncccc1-c1cc2ncnc(Nc3ccc(C4CC4)cc3)c2s1 [Compound 38]", "52.5 nM"),
    ("CSc1ccc(Nc2ncnc3sc(-c4cccnc4Cl)cc23)cc1 [Compound 28]", "18.6 nM"),
    ("CN(C)C(=O)c1cc2c(Nc3ccc(S(C)(=O)=O)cc3)ncnc2s1", "562 nM"),
    ("CS(=O)(=O)c1ccc(Nc2ncnc3sc(-c4cccnc4Cl)cc23)cc1 [Compound 15]", "12.9 nM"),
    ("Cc1cc2c(Nc3ccc(S(=O)(=O)C4CC4)cc3)ncnc2s1", "75.9 nM"),
    ("CS(=O)(=O)c1ccc(Nc2ncnc3sc(-c4ccncc4)cc23)cc1 [Compound 6]", "22.4 nM"),
    ("CSc1ccc(Nc2ncnc3cc(-c4c(C)noc4C)sc23)cc1 [CSc1ccc(cc1)Nc1ncnc2cc(sc12)-c1c(noc1C)C]", "32.4 nM"),
    ("CS(=O)(=O)c1ccc(Nc2ncnc3sc(C(F)F)cc23)cc1", "166 nM"),
    ("O=C(NCc1cc2c(Nc3ccc(S(=O)(=O)C4CCCC4)cc3)ncnc2s1)c1ccc(C2(C(F)(F)F)N=N2)cc1", "39.8 nM"),
    ("CS(=O)(=O)c1ccc(Nc2ncnc3sc(-c4ccc(F)cc4)cc23)cc1", "52.5 nM"),
    ("Cc1ncccc1-c1cc2ncnc(Nc3ccc(N4CCCC4=O)cc3)c2s1 [Compound 42]", "8.32 nM"),
    ("COc1cnccc1-c1cc2c(Nc3ccc(C)c(C)c3)ncnc2s1", "631 nM"),
    ("Cc1cccc(Nc2ncnc3sc(-c4cccnc4C)cc23)c1 [Compound 21]", "5250 nM"),
    ("CS(=O)(=O)c1ccc(Nc2ncnc3sc(-c4cnoc4)cc23)cc1", "36.3 nM"),
    ("COc1cnccc1-c1cc2c(Nc3ccc(C4CC4)cc3)ncnc2[nH]1", "85.1 nM"),
    ("CSc1ccc(Nc2ncnc3sc(-c4c(C)noc4C)cc23)cc1 [Compound 30]", "24.5 nM"),
    ("CCc1cc2c(Nc3ccc(N4CCCC4=O)c(C)c3)ncnc2s1 [CCc1cc2c(ncnc2s1)Nc1ccc(c(c1)C)N1CCCC1=O]", "288 nM"),
    ("CSc1ccc(Nc2ncnc3cc(-c4cccnc4C)sc23)cc1 [CSc1ccc(cc1)Nc1ncnc2cc(sc12)-c1cccnc1C]", "17 nM"),
    ("N#Cc1cc2c(Nc3ccc(S(=O)(=O)C4CCCC4)cc3)ncnc2s1", "49 nM"),
]

----------
Target: PI5P4Kα (Homo sapiens, UniProt P48426)
Sequence (P48426 whole entry): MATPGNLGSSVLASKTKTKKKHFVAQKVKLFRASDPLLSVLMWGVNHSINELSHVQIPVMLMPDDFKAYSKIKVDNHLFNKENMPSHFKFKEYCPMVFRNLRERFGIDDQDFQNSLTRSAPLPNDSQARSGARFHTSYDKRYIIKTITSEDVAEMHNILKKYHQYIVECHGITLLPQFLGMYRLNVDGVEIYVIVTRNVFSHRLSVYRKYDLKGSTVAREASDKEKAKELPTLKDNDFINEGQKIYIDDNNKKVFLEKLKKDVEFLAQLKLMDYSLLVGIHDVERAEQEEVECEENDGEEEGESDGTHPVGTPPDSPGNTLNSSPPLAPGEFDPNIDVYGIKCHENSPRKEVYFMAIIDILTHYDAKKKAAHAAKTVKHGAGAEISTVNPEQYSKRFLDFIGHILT
Test: biochemical
Conditions: ADP-Glo pIC50 PI5P4Kα, Table S1, two decimals; asterisk not explained
Quick reference for log10 IC50 among some molecules
measured-metric: log10 IC50 (log10 of the value in nM)

# molecule, log10 IC50
measured = [
    ("CS(=O)(=O)c1ccc(Nc2ncnc3sc(C(F)F)cc23)cc1", 3.94),
    ("O=C(NCc1cc2c(Nc3ccc(S(=O)(=O)C4CCCC4)cc3)ncnc2s1)c1ccc(C2(C(F)(F)F)N=N2)cc1", 3.72),
    ("CS(=O)(=O)c1ccc(Nc2ncnc3sc(-c4cccnc4Cl)cc23)cc1 [Compound 15]", 2.85),
    ("COc1ncccc1-c1cc2c(Nc3ccc(S(C)(=O)=O)cc3)ncnc2s1", 3.36),
    ("COc1cc(Nc2ncnc3sc(C)cc23)ccc1N1CCCC1=O [COc1cc(ccc1N1CCCC1=O)Nc1ncnc2sc(cc12)C]", 3.86),
    ("Clc1ncccc1-c1cc2c(Nc3ccc(C4CC4)cc3)ncnc2s1", 2.29),
    ("CC(=O)N(C)c1ccc(Nc2ncnc3sc(C)cc23)cc1 [CN(C(=O)C)c1ccc(cc1)Nc1ncnc2sc(cc12)C]", 3.05),
    ("Cc1ncccc1-c1cc2c(Nc3ccc(S(C)(=O)=O)cc3)ncnc2s1 [Compound 17]", 3.05),
    ("COc1cnccc1-c1cc2c(Nc3ccc(C4CC4)cc3)ncnc2s1", 2.43),
    ("CS(=O)(=O)c1ccc(Nc2ncnc3cc(-c4cccnc4Cl)sc23)cc1 [Compound 37]", 2.55),
    ("Cc1ncccc1-c1cc2ncnc(Nc3ccc(N4CCCC4=O)cc3)c2s1 [Compound 42]", 2.05),
    ("COc1cnccc1-c1cc2c(Nc3ccc(C)c(C)c3)ncnc2s1", 2.44),
    ("CSc1ccc(Nc2ncnc3sc(-c4cccnc4C)cc23)cc1 [Compound 25]", 2.45),
    ("CC(=O)NCc1cc2c(Nc3ccc(S(=O)(=O)C4CCCC4)cc3)ncnc2s1", 3.64),
    ("CSc1ccc(Nc2ncnc3cc(-c4c(C)noc4C)sc23)cc1 [CSc1ccc(cc1)Nc1ncnc2cc(sc12)-c1c(noc1C)C]", 1.35),
    ("Cc1cccc(Nc2ncnc3sc(-c4cccnc4C)cc23)c1 [Compound 21]", 3.55),
]

Data provenance: paper PMC10583824
